Overview of recorded Ki for various compounds
Biological target: NS3/4A protease gt 1b (Hepatitis C virus genotype 1b)
Experiment: HCV NS3 protease time-resolved fluorescence (TRF) assay, NS3/4A inhibitory activity (Ki), gt 1b
Settings: genotype 1b NS3/4A; read-out: Enzyme Activity gt 1b Ki
The reply should be a number in nM, with the unit left off.

>>> test_value("C=C[C@@H]1C[C@]1(NC(=O)[C@@H]1C[C@@H]2CN1C(=O)[C@H](C(C)(C)C)NC(=O)O[C@@]1(C)C[C@@H]1CCCCCc1nc3ccccc3nc1O2)C(=O)NS(=O)(=O)C1CC1 [Example I-9]")
0.06
>>> test_value("CC[C@@H]1C[C@]1(NC(=O)[C@@H]1C[C@@H]2CN1C(=O)[C@H](C(C)(C)C)NC(=O)O[C@]1(C)C[C@H]1CCCCCc1nc3ccc(OC)cc3cc1O2)C(=O)NS(=O)(=O)C1CC1 [Example I-11]")
0.03
>>> test_value("C=C[C@@H]1C[C@]1(NC(=O)[C@@H]1C[C@@H]2CN1C(=O)[C@H](C1CCCC1)NC(=O)O[C@@]1(C)C[C@@H]1CC/C=C/Cn1c(nc3cc(C)ccc3c1=O)O2)C(=O)NS(=O)(=O)C1CC1 [Example I-22]")
0.3
>>> test_value("C=C[C@@H]1C[C@]1(NC(=O)[C@@H]1C[C@@H]2CN1C(=O)[C@H](C(C)(C)C)NC(=O)O[C@@]1(C)C[C@@H]1CCCCc1cccc3c1CN(C3)C(=O)O2)C(=O)NS(=O)(=O)C1CC1 [Example I-21]")
1.4
>>> test_value("C=C[C@@H]1C[C@]1(NC(=O)[C@@H]1C[C@@H]2CN1C(=O)[C@H](C(C)(C)C)NC(=O)O[C@]1(C)C[C@H]1CCC/C=C/c1cccc3c1CN(C3)C(=O)O2)C(=O)NS(=O)(=O)C1(C)CC1 [Example I-32]")
0.03
>>> test_value("C=C[C@@H]1C[C@]1(NC(=O)[C@@H]1C[C@@H]2CN1C(=O)[C@H](C1CCCC1)NC(=O)O[C@]1(C)C[C@H]1CCC/C=C/c1cccc3c1CN(C3)C(=O)O2)C(=O)NS(=O)(=O)C1CC1 [Example I-12]")
0.02
>>> test_value("C=C[C@@H]1C[C@]1(NC(=O)[C@@H]1C[C@@H]2CN1C(=O)[C@H](C1CCCC1)NC(=O)O[C@@]1(C)C[C@@H]1CC/C=C/Cn1c(nc3cc(Cl)ccc3c1=O)O2)C(=O)NS(=O)(=O)C1CC1 [Example I-25]")
0.2
>>> test_value("C=C[C@@H]1C[C@]1(NC(=O)[C@@H]1C[C@@H]2CN1C(=O)[C@H](C1CCCC1)NC(=O)O[C@]1(C)CCC[C@H]1CCCCCc1c(nc3ccccc3c1O)O2)C(=O)NS(=O)(=O)C1CC1 [Example I-16]")
0.02
>>> test_value("C=C[C@@H]1C[C@]1(NC(=O)[C@@H]1C[C@@H]2CN1C(=O)[C@H](C1CCCC1)NC(=O)O[C@]1(C)C[C@H]1CC/C=C/Cn1c(nc3cc(C)ccc3c1=O)O2)C(=O)NS(=O)(=O)C1CC1 [Example I-23]")
0.02
>>> test_value("C=C[C@@H]1C[C@]1(NC(=O)[C@@H]1C[C@@H]2CN1C(=O)[C@H](C1CCCC1)NC(=O)O[C@]1(C)C[C@H]1CCCCCc1nc3ccccc3nc1O2)C(=O)NS(=O)(=O)C1CC1 [Example I-28]")
0.04

Now examine the next entry.
State the recorded Ki for this entry: CC[C@@H]1C[C@]1(NC(=O)[C@@H]1C[C@@H]2CN1C(=O)[C@H](C1CCCC1)NC(=O)O[C@]1(C)CCC[C@H]1CCCCCc1c(nc3ccccc3c1O)O2)C(=O)NS(=O)(=O)C1CC1 [Example I-18] 0.07
